- Measured target: VIM-1 (Pseudomonas aeruginosa (strain ATCC 15692 / DSM 22644 / CIP 104116 / JCM 14847 / LMG 12228 / 1C / PRS 101 / PAO1), UniProt A0A0F7KYQ8)
- Protocol details: biochemical
- Test parameters: fluorescence assay, CCF2-FA substrate, 30 pM enzyme, 2 hours at 25° C.; read-out: VIM-1 IC50
Readout kind: IC50 (nM)
Just the number please, in nM, no unit attached.

- CN(C)C1CN(S(=O)(=O)c2ccc(-c3cccc4sc(N)nc34)c(-c3nnn[nH]3)c2S(N)(=O)=O)C1: 0.908

Tell us which IC50 value is on record for Nc1nc2c(-c3ccc(S(=O)(=O)N4CCC(N)CC4)c(S(N)(=O)=O)c3-c3nn[nH]n3)cccc2s1 0.749

Tell us which IC50 value is on record for Nc1nc2c(-c3ccc(S(=O)(=O)NC4C5CNCC54)c(S(N)(=O)=O)c3-c3nnn[nH]3)cccc2s1.O=C(O)C(F)(F)F (centres unmarked) [Example 111, 2,2,2-trifluoroacetate] 0.298

Tell us which IC50 value is on record for NCCNS(=O)(=O)c1ccc(C2=CC(N)CCC2)c(-c2nn[nH]n2)c1S(N)(=O)=O (centres unmarked) 6.42

Tell us which IC50 value is on record for NCC(CN)NS(=O)(=O)c1ccc(-c2cccc(-c3nc[nH]n3)c2)c(-c2nn[nH]n2)c1S(N)(=O)=O 0.137

====

- Measured target: IMP-1 (Serratia marcescens, UniProt P52699)
- Sequence (P52699 whole entry, looked up, species assumed): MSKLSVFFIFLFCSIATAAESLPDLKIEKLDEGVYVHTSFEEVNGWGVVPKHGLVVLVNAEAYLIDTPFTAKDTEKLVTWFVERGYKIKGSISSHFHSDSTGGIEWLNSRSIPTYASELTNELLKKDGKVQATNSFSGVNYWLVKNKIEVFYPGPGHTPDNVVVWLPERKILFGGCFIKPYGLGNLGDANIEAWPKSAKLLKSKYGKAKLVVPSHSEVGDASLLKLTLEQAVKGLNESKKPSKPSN
- Protocol details: biochemical
- Format: biochemical
- Test parameters: fluorescence assay, CCF2-FA substrate, 2 pM enzyme, 2 hours at 25° C.; read-out: IMP-1 IC50
Readout kind: IC50 (nM)
Just the number please, in nM, no unit attached.

• NC[C@H](CO)NS(=O)(=O)c1ccc(-c2cccnc2N)c(-c2nn[nH]n2)c1S(N)(=O)=O = 2.12
• Nc1cncc(-c2ccc(S(=O)(=O)N[C@@H]3CCNC3)c(S(N)(=O)=O)c2-c2nn[nH]n2)c1 = 1.93
• C[C@H](CN)NS(=O)(=O)c1ccc(-c2cccc3c2nc(N)n3C)c(-c2nn[nH]n2)c1S(N)(=O)=O = 0.156

Next compound, please.
Using IMP-1 (Serratia marcescens, UniProt P52699) as the test system, report measured IC50 of Nc1cc(-c2ccc(S(=O)(=O)N[C@@H]3CCNC3)c(S(N)(=O)=O)c2-c2nn[nH]n2)ccn1 . 0.462

====

The reader will find reported IC50 values listed item by item below.
- Measured target: IMP-1 (Serratia marcescens)
- Protocol details: biochemical
- Type: biochemical
- Test parameters: fluorescence assay, CCF2-FA substrate, 2 pM enzyme, 2 hours at 25° C.; read-out: IMP-1 IC50
Just the number please, in nM, no unit attached.

Some entries whose results are on file:
• Nc1nc2c(-c3ccc(S(=O)(=O)NC4CNC[C@H]4N)c(S(N)(=O)=O)c3-c3nn[nH]n3)cccc2[nH]1 (stereo in doubt) = 0.738
• NS(=O)(=O)c1c(S(=O)(=O)N[C@@H]2CCNC2)ccc(-c2cccnc2N2CCNCC2)c1-c1nn[nH]n1 = 35.8

Tell us which IC50 value is on record for C[C@@H](N)CNS(=O)(=O)c1ccc(-c2ccc(N)nc2)c(-c2nn[nH]n2)c1S(N)(=O)=O 0.32

====

The reader will find reported pIC50 values listed item by item below.
- Measured target: VIM-1 (Pseudomonas aeruginosa (strain ATCC 15692 / DSM 22644 / CIP 104116 / JCM 14847 / LMG 12228 / 1C / PRS 101 / PAO1), UniProt A0A0F7KYQ8)
- Protocol details: biochemical
- Test parameters: fluorescence assay, CCF2-FA substrate, 30 pM enzyme, 2 hours at 25° C.; read-out: VIM-1 IC50
pIC50 here: minus log base 10 of the concentration, concentration in moles per litre.

• Nc1ccc(-c2ccc(S(=O)(=O)NC[C@@H](N)CO)c(S(N)(=O)=O)c2-c2nn[nH]n2)cn1 [Example 365] = 9.61

Tell us which pIC50 value is on record for NS(=O)(=O)c1c(S(=O)(=O)N[C@@H]2CCNC2)ccc(-c2cccc3ncccc23)c1-c1nn[nH]n1 [Example 287] 9.78

Tell us which pIC50 value is on record for NCCNS(=O)(=O)c1ccc(-c2ccc(N)nc2)c(-c2nn[nH]n2)c1S(N)(=O)=O [Example 196] 9.66

Tell us which pIC50 value is on record for NCc1nc2c(-c3ccc(S(=O)(=O)NC[C@@H]4CNCCN4)c(S(N)(=O)=O)c3-c3nn[nH]n3)cccc2[nH]1 [Example 311] 9.96

====

- Measured target: UniProtKB C7C422
- Sequence (C7C422 whole entry, looked up, species assumed): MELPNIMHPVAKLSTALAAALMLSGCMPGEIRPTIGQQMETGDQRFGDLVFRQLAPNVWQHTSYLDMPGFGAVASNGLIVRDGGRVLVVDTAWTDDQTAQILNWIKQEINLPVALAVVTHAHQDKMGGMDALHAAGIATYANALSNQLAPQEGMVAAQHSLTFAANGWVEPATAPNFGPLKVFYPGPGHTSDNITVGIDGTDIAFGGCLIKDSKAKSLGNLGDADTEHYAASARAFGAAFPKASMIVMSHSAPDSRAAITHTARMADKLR
- Protocol details: biochemical
- Assay type: biochemical
- Test parameters: fluorescence assay, CCF2-FA substrate, 1 pM enzyme, 2 hours at 25° C.; read-out: NDM-1 IC50
The reader will find reported IC50 values listed item by item below.
A bare number is not enough; add the unit after it.

Some entries whose results are on file:
• NCCNS(=O)(=O)c1ccc(-c2ccc(N)nc2)c(-c2nn[nH]n2)c1S(N)(=O)=O [Example 196] = 0.328 nM
• CN(C1CNC1)S(=O)(=O)c1ccc(-c2cccc3[nH]c(N)nc23)c(-c2nn[nH]n2)c1S(N)(=O)=O [Example 255] = 0.113 nM
• NC[C@H](CO)NS(=O)(=O)c1ccc(-c2cccc3[nH]nnc23)c(-c2nn[nH]n2)c1S(N)(=O)=O [Example 407] = 0.14 nM
• NCCNS(=O)(=O)c1ccc(-c2cccc3[nH]c([C@@H]4C[C@@H](O)CN4)nc23)c(-c2nn[nH]n2)c1S(N)(=O)=O [Example 444] = 0.236 nM
• Nc1nc2c(-c3ccc(S(=O)(=O)NC4CCNCC4)c(S(N)(=O)=O)c3-c3nn[nH]n3)cccc2[nH]1 [Example 260] = 0.0431 nM
• Nc1ccc2cccc(-c3ccc(S(N)(=O)=O)c(S(N)(=O)=O)c3-c3nn[nH]n3)c2n1 [Example 2] = 0.163 nM
• CC1(NS(=O)(=O)c2ccc(-c3cccc4[nH]c(N)nc34)c(-c3nn[nH]n3)c2S(N)(=O)=O)CNC1 [Example 257] = 0.033 nM

Next molecule, please.
Tell us which IC50 value is on record for NCCNS(=O)(=O)c1ccc(-c2cccc3[nH]c([C@H](N)CN)nc23)c(-c2nn[nH]n2)c1S(N)(=O)=O [Example 335] 0.459 nM

====

The reader will find reported pIC50 values listed item by item below.
- Measured target: VIM-1 (Pseudomonas aeruginosa (strain ATCC 15692 / DSM 22644 / CIP 104116 / JCM 14847 / LMG 12228 / 1C / PRS 101 / PAO1), UniProt A0A0F7KYQ8)
- Protocol details: biochemical
- Test parameters: fluorescence assay, CCF2-FA substrate, 30 pM enzyme, 2 hours at 25° C.; read-out: VIM-1 IC50
pIC50 here: minus log base 10 of the concentration, concentration in moles per litre.

- NCCNS(=O)(=O)c1ccc(-c2cccc(NC(=O)[C@@H](N)CN)c2)c(-c2nn[nH]n2)c1S(N)(=O)=O: 9.61
- NCCNS(=O)(=O)c1ccc(-c2cccc3cn[nH]c23)c(-c2nn[nH]n2)c1S(N)(=O)=O: 9.88
- NCCNc1cc(-c2ccc(S(=O)(=O)NCCN)c(S(N)(=O)=O)c2-c2nn[nH]n2)ccn1: 9.26
- Nc1nc2c(-c3ccc(S(=O)(=O)N4CCC(N)(CO)C4)c(S(N)(=O)=O)c3-c3nnn[nH]3)cccc2s1 (centres unmarked): 8.84

Next molecule, please.
Tell us which pIC50 value is on record for C[C@@H](N)CNS(=O)(=O)c1ccc(-c2cccc3[nH]c(N)nc23)c(-c2nn[nH]n2)c1S(N)(=O)=O 9.72

====

The reader will find reported Efflux ratio values listed item by item below.
- Test system: Pseudomonas aeruginosa MB9798 vs MB9799
- Test parameters: ratio MITC95 PA_9798/MITC95 PA_9799
Lab note: record just the number, no unit beside it.

Some entries whose results are on file:
• CCC1(NS(=O)(=O)c2ccc(-c3cccc4sc(N)nc34)c(-c3nnn[nH]3)c2S(N)(=O)=O)CCNC1 (centres unmarked) = 1.00
• CC1(NS(=O)(=O)c2ccc(-c3cccc4[nH]c(N)nc34)c(-c3nn[nH]n3)c2S(N)(=O)=O)CNC1 = 1.00
• NCCNS(=O)(=O)c1ccc(-c2cccc3[nH]c(CCN)nc23)c(-c2nn[nH]n2)c1S(N)(=O)=O = 2.00
• CN1CC[C@@H](NS(=O)(=O)c2ccc(-c3cccc4[nH]c(N)nc34)c(-c3nn[nH]n3)c2S(N)(=O)=O)C1 = 2.00

Next compound, please.
Tell us which Efflux ratio value is on record for CC(N)CNS(=O)(=O)c1ccc(-c2cccc3sc(N)nc23)c(-c2nnn[nH]2)c1S(N)(=O)=O.O=C(O)C(F)(F)F (centres unmarked) 0.50
